Measured values drawn from ChEMBL document CHEMBL1153245 for this set.

- Test system: OVCAR-5
- assay_details: Anticancer activity against human OVCAR5 cells after 48 hrs by sulforhodamine B assay
- Type: functional
- conditions_used: Homo sapiens, OVCAR-5, 48 h
measure_name: GI50 (nM)
Answers are plain numbers, in nM.

- structure_notation: "CCCCCCCCCCCCCCCCCC[n+]1ccn(C)c1.[Cl-]"
  target_system: "OVCAR-5"
  unit_info: "nM"
  reported_measurement: 819
- structure_notation: "CCCCCCCCCCCC[n+]1ccn(C)c1.[Cl-]"
  target_system: "OVCAR-5"
  unit_info: "nM"
  reported_measurement: 3750
- structure_notation: "CCCCCCCCCCCCCCCCCC[n+]1ccn(C)c1.FC(F)(F)C(F)(F)[P-](F)(F)(F)(C(F)(F)C(F)(F)F)C(F)(F)C(F)(F)F"
  target_system: "OVCAR-5"
  unit_info: "nM"
  reported_measurement: 489
- structure_notation: "CCCCCCCCCCCCCCCC[n+]1ccn(C)c1.[Cl-]"
  target_system: "OVCAR-5"
  unit_info: "nM"
  reported_measurement: 912

stdin: Record lookup: for OVCAR-5, what GI50 belongs to "CCCCCCCCCCCCCCCCCC[n+]1ccn(C)c1.O=S(=O)([N-]S(=O)(=O)C(F)(F)F)C(F)(F)F" ?
stdout: 909

* * *

- System: SW-620
- assay_details: Anticancer activity against human SW620 cells assessed cell growth at 10 uM after 48 hrs by sulforhodamine B assay relative to control
- Format: functional
For each record, check the reported Activity: if it is below 80% write Yes, else write No.

Illustrative cases are given below, each with its answer.
- structure_notation: "Cn1cc[n+](CCO)c1.O=S(=O)([N-]S(=O)(=O)C(F)(F)F)C(F)(F)F"
  answer_label: "No"
- structure_notation: "CCCCCCCCOS(=O)(=O)[O-].CCCCCCCC[n+]1ccn(C)c1"
  answer_label: "No"
- structure_notation: "CCCCCCCCCCCCCCCCCC[n+]1ccn(C)c1.O=S(=O)([N-]S(=O)(=O)C(F)(F)F)C(F)(F)F"
  answer_label: "Yes"
- structure_notation: "CCCCCCCCCCCCCCCCCC[n+]1ccn(C)c1.FC(F)(F)C(F)(F)[P-](F)(F)(F)(C(F)(F)C(F)(F)F)C(F)(F)C(F)(F)F"
  answer_label: "Yes"
- structure_notation: "CCCCCCCC[n+]1ccn(C)c1.[Cl-]"
  answer_label: "No"
- structure_notation: "COCC[n+]1ccn(C)c1.O=S(=O)([N-]S(=O)(=O)C(F)(F)F)C(F)(F)F"
  answer_label: "No"

stdin: Input "CCCCCCCCCCCC[n+]1ccn(C)c1.[Cl-]" ; condition: Activity strictly below 80%. Does it hold?
stdout: Yes

stdin: Input "CCCCCCCCCCCCCCCCCC[n+]1ccn(C)c1.F[P-](F)(F)(F)(F)F" ; condition: Activity strictly below 80%. Does it hold?
stdout: Yes

stdin: Input "CCCCCCCCCCCC[n+]1ccn(C)c1.F[B-](F)(F)F" ; condition: Activity strictly below 80%. Does it hold?
stdout: Yes

stdin: Input "CCCCCCCC[n+]1ccn(C)c1.F[P-](F)(F)(F)(F)F" ; condition: Activity strictly below 80%. Does it hold?
stdout: Yes

* * *

- Test system: UACC-257
- assay_details: Anticancer activity against human UACC257 cells after 48 hrs by sulforhodamine B assay
- Assay type: functional
- conditions_used: Homo sapiens, UACC-257, 48 h
Please go through the items and note down their GI50.
Give bare numbers, in µM.

For every listed record, write down its GI50.
1. CCCCCCCCCCCCCCCCCC[n+]1ccn(C)c1.FC(F)(F)C(F)(F)[P-](F)(F)(F)(C(F)(F)C(F)(F)F)C(F)(F)C(F)(F)F
2. CCCCCCCCCCCC[n+]1ccn(C)c1.[Cl-]
3. CCCCCCCCCCCCCCCC[n+]1ccn(C)c1.[Cl-]
4. CCCCCCCCCCCCCCCCCC[n+]1ccn(C)c1.O=S(=O)([N-]S(=O)(=O)C(F)(F)F)C(F)(F)F

stdout:
1. 0.523
2. 1.68
3. 1.12
4. 1.53

* * *

- Tested on: LOX IMVI
- assay_details: Anticancer activity against human LOXIMVI cells after 48 hrs by sulforhodamine B assay
- Assay type: functional
- conditions_used: Homo sapiens, LOX IMVI, 48 h
Please go through the items and note down their GI50.
One number for each entry, in nM.

Recorded results for 3 molecules are shown here.
- structure_notation: "CCCCCCCCCCCCCCCCCC[n+]1ccn(C)c1.O=S(=O)([N-]S(=O)(=O)C(F)(F)F)C(F)(F)F"
  target_system: "LOX IMVI"
  GI50 (nM): 406
- structure_notation: "CCCCCCCCCCCC[n+]1ccn(C)c1.[Cl-]"
  target_system: "LOX IMVI"
  GI50 (nM): 1720
- structure_notation: "CCCCCCCCCCCCCCCC[n+]1ccn(C)c1.[Cl-]"
  target_system: "LOX IMVI"
  GI50 (nM): 334

Attention now turns to another entry.
stdin: Fill in: GI50 of "CCCCCCCCCCCCCCCCCC[n+]1ccn(C)c1.FC(F)(F)C(F)(F)[P-](F)(F)(F)(C(F)(F)C(F)(F)F)C(F)(F)C(F)(F)F" is ___
stdout: 164

* * *

- System: CAKI-1
- assay_details: Anticancer activity against human Caki1 cells assessed cell growth at 10 uM after 48 hrs by sulforhodamine B assay relative to control
- Format: functional
Label TRUE when Activity is at or above 50%; otherwise label FALSE.

Illustrative cases are given below, each with its answer.
- structure_notation: "Cn1cc[n+](CCO)c1.O=S(=O)([N-]S(=O)(=O)C(F)(F)F)C(F)(F)F"
  answer_label: "TRUE"
- structure_notation: "CCCCCCCCCCCCCCCCCC[n+]1ccn(C)c1.F[P-](F)(F)(F)(F)F"
  answer_label: "FALSE"

stdin: Hi team, for "Cn1cc[n+](Cc2ccccc2)c1.F[P-](F)(F)(F)(F)F" , is the recorded Activity at or above 50%?
stdout: TRUE

stdin: Hi team, for "CCCCCCCCCCCCCCCC[n+]1ccn(C)c1.[Cl-]" , is the recorded Activity at or above 50%?
stdout: FALSE

* * *

- Tested on: MCF7
- assay_details: Anticancer activity against human MCF7 cells after 48 hrs by sulforhodamine B assay
- Format: functional
- conditions_used: Homo sapiens, MCF7, 48 h
Please go through the items and note down their GI50.
One number for each entry, in nM.

Recorded results for 3 compounds are shown here.
- structure_notation: "CCCCCCCCCCCC[n+]1ccn(C)c1.[Cl-]"
  GI50 (nM): 1690
- structure_notation: "CCCCCCCCCCCCCCCCCC[n+]1ccn(C)c1.FC(F)(F)C(F)(F)[P-](F)(F)(F)(C(F)(F)C(F)(F)F)C(F)(F)C(F)(F)F"
  GI50 (nM): 309
- structure_notation: "CCCCCCCCCCCCCCCC[n+]1ccn(C)c1.[Cl-]"
  GI50 (nM): 431

Attention now turns to another entry.
stdin: Record lookup: for MCF7, what GI50 belongs to "CCCCCCCCCCCCCCCCCC[n+]1ccn(C)c1.O=S(=O)([N-]S(=O)(=O)C(F)(F)F)C(F)(F)F" ?
stdout: 1000

* * *

- Test system: HT-29
- assay_details: Anticancer activity against human HT-29 cells after 48 hrs by sulforhodamine B assay
- Type: functional
- conditions_used: Homo sapiens, HT-29, 48 h
measure_name: GI50 (nM)
One number for each entry, in nM.

Recorded results for 3 molecules are shown here.
- structure_notation: "CCCCCCCCCCCCCCCC[n+]1ccn(C)c1.[Cl-]"
  measure_name: "GI50"
  unit_info: "nM"
  reported_measurement: 311
- structure_notation: "CCCCCCCCCCCCCCCCCC[n+]1ccn(C)c1.O=S(=O)([N-]S(=O)(=O)C(F)(F)F)C(F)(F)F"
  measure_name: "GI50"
  unit_info: "nM"
  reported_measurement: 378
- structure_notation: "CCCCCCCCCCCCCCCCCC[n+]1ccn(C)c1.FC(F)(F)C(F)(F)[P-](F)(F)(F)(C(F)(F)C(F)(F)F)C(F)(F)C(F)(F)F"
  measure_name: "GI50"
  unit_info: "nM"
  reported_measurement: 315

For every listed record, write down its GI50.
1. CCCCCCCCCCCCCCCCCC[n+]1ccn(C)c1.[Cl-]
2. CCCCCCCCCCCC[n+]1ccn(C)c1.[Cl-]

stdout:
[315, 2600]

* * *

- Test system: NCI-H226
- assay_details: Anticancer activity against human NCI-H226 cells assessed cell growth at 10 uM after 48 hrs by sulforhodamine B assay relative to control
- Assay type: functional
Please go through the items and note down their Activity.
One number for each entry, in %.

- structure_notation: "CCCCCCCCCCCCCCCCCC[n+]1ccn(C)c1.O=S(=O)([N-]S(=O)(=O)C(F)(F)F)C(F)(F)F"
  reported_measurement: -61.74
- structure_notation: "CCCCCCCCCCCCCCCC[n+]1ccn(C)c1.[Cl-]"
  reported_measurement: -60.54
- structure_notation: "CCCCCC[n+]1ccn(C)c1.O=S(=O)([N-]S(=O)(=O)C(F)(F)F)C(F)(F)F"
  reported_measurement: 87.92
- structure_notation: "COCC[n+]1ccn(C)c1.O=S(=O)([N-]S(=O)(=O)C(F)(F)F)C(F)(F)F"
  reported_measurement: 100.3
- structure_notation: "CCCCCC[n+]1ccn(C)c1.FC(F)(F)C(F)(F)[P-](F)(F)(F)(C(F)(F)C(F)(F)F)C(F)(F)C(F)(F)F"
  reported_measurement: 57.04
- structure_notation: "CCCCCCCCCCCCCCCCCC[n+]1ccn(C)c1.[Cl-]"
  reported_measurement: -54.04

For every listed record, write down its Activity.
1. Cn1cc[n+](Cc2ccccc2)c1.F[P-](F)(F)(F)(F)F
2. CCCCCCCC[n+]1ccn(C)c1.F[B-](F)(F)F
3. CCCCCCCCOS(=O)(=O)[O-].CCCCCCCC[n+]1ccn(C)c1
4. CCCCCCCCCCCCCCCCCC[n+]1ccn(C)c1.FC(F)(F)C(F)(F)[P-](F)(F)(F)(C(F)(F)C(F)(F)F)C(F)(F)C(F)(F)F
5. CCCCCCCC[n+]1ccn(C)c1.[Cl-]
6. CCCCCCCCCCCC[n+]1ccn(C)c1.F[B-](F)(F)F
7. CCCCCCCCCCCCCCCCCC[n+]1ccn(C)c1.F[P-](F)(F)(F)(F)F

stdout:
1: 99.73; 2: 75.04; 3: 74.07; 4: -58.27; 5: 75.79; 6: 37.19; 7: -34.72

For every listed record, write down its Activity.
1. CCCCCCCC[n+]1ccn(C)c1.F[P-](F)(F)(F)(F)F
2. Cn1cc[n+](CCO)c1.O=S(=O)([N-]S(=O)(=O)C(F)(F)F)C(F)(F)F

stdout:
1: 72.91; 2: 101.7

stdin: Fill in: Activity of "CCCCCCCCCCCC[n+]1ccn(C)c1.[Cl-]" is ___
stdout: 30.42
